melting point reference

# count of solved cases: 5
[[record]]
molecule = "C=CCc1c(O)c(C)cc2c1C(C)(C)CC1(CC(C)(C)c3cc(O)c(C)cc3O1)O2 (centres undefined)"
result = "102 to 104 °C"

[[record]]
molecule = "C=Cc1cc(C(C)NC(=O)OC(C)(C)C)cc(F)c1N (centres undefined)"
result = "59 to 61 °C"

[[record]]
molecule = "Cc1[nH]c2ccc(C3=NNC(=O)CC3)cc2c1-c1ccccc1"
result = "297 to 299 °C"

[[record]]
molecule = "CC(C)(C)c1ccc(Nc2ncc(-c3ccc4ncncc4c3)c3ccccc23)cc1"
result = "213 to 214 °C"

[[record]]
molecule = "Cc1cc(C)c2c(c1)SCC2c1ccc(C(C)C)cc1 (centres undefined)"
result = "74 to 75 °C"


Query: What measured melting point goes with O=C(/C=C/c1ccc(NC(=O)Cc2cccc3ccccc23)cc1)NO ?
Response: 222 to 224 °C

Query: What measured melting point goes with Clc1cccc(C(c2ccnc3ccccc23)n2ccnc2)c1 (centres undefined) ?
Response: 184 °C

Query: What measured melting point goes with CCCCc1nc2cnc3ccccc3c2n1CCCCSc1ccc(F)cc1F ?
Response: 122 to 126 °C

Query: What measured melting point goes with CSc1cc(OCCC[Si](C)(C)C)c(Cl)cc1NC=NC#N ?
Response: 94 to 96 °C

----------
melting point reference

# count of solved cases: 2
[[record]]
compound = "CC12CC(=O)C3C(C=CC4=CC(=O)CCC43C)C1CCC2=O (stereo not drawn)"
result = "237 °C"

[[record]]
compound = "CNC(=O)Nc1scc(C(C)(C)C)c1C#N"
result = "212 to 214 °C"


API: the following record is the query input.
Query: What measured melting point goes with NC[C@H](O)c1ccc2nnnn2c1 ?
Response: 153 to 154 °C

----------
ENDPOINT: melting point (°C)

[P] COc1cc(O)ccc1[N+](=O)[O-]
[Q] CCCN(C(N)=S)C(COC1CCCCO1)c1ccccc1 (stereo not given)
Query: Short answer wanted: higher melting point, P or Q ? Label of pick, please.
Response: P
(P: 142 °C, Q: 82 °C)

----------
melting point reference

Query: What measured melting point goes with O=C(NCC12CC3CC(CC(C3)C1)C2)c1cc(CC[C@H](O)CO)ccc1Cl ?
Response: 145 to 147 °C

Query: What measured melting point goes with COC(=O)CC(=O)Nc1ccc(C2=NNC(=O)CC2C)cc1 (stereo unspecified) ?
Response: 228 to 230 °C

----------
melting point reference

[[record]]
compound = "CCCCCCCCCCCCCCC(O)CO (stereo unspecified)"
endpoint = "melting point"
result = "76 to 77 °C"

[[record]]
compound = "Cc1ccc(S(=O)(=O)N2CCCC(CSc3ccccc3)C2)cc1 (stereo unspecified)"
endpoint = "melting point"
result = "66.7 °C"

[[record]]
compound = "COc1c(O)cccc1C(=O)C1CCN(CCc2ccc(F)cc2)CC1"
endpoint = "melting point"
result = "100 to 101 °C"


Query: What measured melting point goes with CS(=O)(=O)Nc1cc(C(c2cc(F)ccc2F)S(=O)(=O)c2ccc(Cl)cc2)c(F)cn1 (stereo unspecified) ?
Response: 217 to 219 °C

Query: What measured melting point goes with N#Cc1c(-c2cccc(CN)c2)cc(-c2ccccc2O)nc1NC(=O)c1cccs1 ?
Response: 203 to 205 °C

Query: What measured melting point goes with Cc1nc(N)c2nc(CO)n(NC3CCC3)c2c1C ?
Response: 211 to 213 °C

Query: What measured melting point goes with O=C(c1ccco1)N1CCN(Cc2ccc(-c3cc4ncnc(Nc5ccc6[nH]ccc6c5)c4s3)cc2)CC1 ?
Response: 167 to 174 °C

Query: What measured melting point goes with CCOC(=O)Cn1nnnc1C(=O)OCC ?
Response: 26 to 29.5 °C

Query: What measured melting point goes with COc1ccc(-c2cncc(C#N)c2Nc2ccc3[nH]ccc3c2C)cc1OC ?
Response: 130 to 133 °C

Query: What measured melting point goes with ClCc1cccc2c1CCCC2 ?
Response: 51 to 52 °C

Query: What measured melting point goes with CCOC=Nc1ccc2nnc(-c3ncc([N+](=O)[O-])n3C)n2n1 ?
Response: 134 to 135 °C

----------
melting point reference

# count of solved cases: 2
[[record]]
molecule = "COC(Oc1cc(Cl)c(Cl)c(Cl)c1)C(=O)O (stereo unspecified)"
endpoint = "melting point"
result = "101 to 104 °C"

[[record]]
molecule = "COc1ccc(C2=NOC(C)(/C(N)=C/OC(C)=O)C2)cc1OC1CCCC1 (stereo unspecified)"
endpoint = "melting point"
result = "131 °C"


Query: What measured melting point goes with CNC1CCN(c2c(F)cc3c(=O)c(C(=O)O)cn(C4CC4)c3c2C)CC1C (stereo unspecified) ?
Response: 233 to 235 °C

----------
ENDPOINT: melting point

# count of solved cases: 3
[[record]]
compound = "Nc1cnc(Oc2cnc3ccccc3c2)c(Cl)c1"
result = "156 to 159 °C"

[[record]]
compound = "COc1ccc(C2CCN(C(=O)NCc3ccccn3)CC2)cc1OC1CCCC1"
result = "104 to 105 °C"

[[record]]
compound = "O=C(Nc1ccc(Cl)nc1)C1=NN(c2ccc(Cl)cc2)C(c2ccc(F)cc2)C1 (stereo unspecified)"
result = "191 to 193 °C"


Query: What measured melting point goes with C=C1OC(c2ccc(Cl)cc2)=NC1(C)CC (stereo unspecified) ?
Response: 55 to 57 °C

Query: What measured melting point goes with COCCCNC1(c2ccccc2Cl)C(=O)N(S(=O)(=O)c2ccc3c(c2)CCN3C(=O)OC)c2ccc(Cl)cc21 (stereo unspecified) ?
Response: 98 °C

Query: What measured melting point goes with CN1CCN(c2cc(Cl)nc(-c3ccccc3)n2)CC1 ?
Response: 91 to 92.5 °C

----------
ENDPOINT: melting point

# count of solved cases: 3
[[record]]
compound = "CC(C)Oc1cc(NC(=O)C2CCCCN2)c(F)cc1Cl (stereo not given)"
endpoint = "melting point"
result = "96 to 98 °C"

[[record]]
compound = "COc1cc(C(=O)O)ccc1Cc1cccc2ccc(NC(=O)CC3CCCC3)cc12"
endpoint = "melting point"
result = "248 to 250 °C"

[[record]]
compound = "COc1cc(Br)ccc1OCc1ccc2ccccc2c1"
endpoint = "melting point"
result = "108 °C"


API: the following record is the query input.
Query: What measured melting point goes with CC(=O)NCC1CN(c2ccc(-n3cnc(Cn4cccn4)c3)c(F)c2)C(=O)O1 (stereo not given) ?
Response: 158 to 160 °C

----------
ENDPOINT: melting point

# count of solved cases: 5
[[record]]
compound = "Cc1cc(CSCCN)sc1CN1CCCCC1"
result = "81 °C"

[[record]]
compound = "COc1ccc(C2(C#N)CCC(=NO)CC2)cc1OC1CCCC1 (centres undefined)"
result = "50 to 53 °C"

[[record]]
compound = "O=C1c2cc(Br)ccc2CCc2ccc(S(=O)(=O)F)cc21"
result = "148 to 151 °C"

[[record]]
compound = "O=C(O)c1cc2cc(F)c(F)cc2o1"
result = "270 °C"

[[record]]
compound = "CCn1nc(-c2ccc(Oc3nc4cccnc4n3C)cc2)c2nccnc21"
result = "161 to 162 °C"


Query: What measured melting point goes with O=C(Nc1cc(C(=O)O)cc(-c2ccccc2)c1)OCc1cc2cc(-c3ccccc3)ccc2o1 ?
Response: 174 to 175 °C

Query: What measured melting point goes with CN(C)c1cccc(OCC(=O)c2cccc(Cl)c2)c1 ?
Response: 101 to 103 °C

Query: What measured melting point goes with O=C(Nc1cc(Cl)cc(Cl)c1O)C(=O)Nc1ncc(Cl)cc1Cl ?
Response: 245 °C

Query: What measured melting point goes with CC(C)C(=O)C(C)(C)C1(O)C(=O)N(Cc2ccc(Cl)cc2)c2ccccc21 (centres undefined) ?
Response: 105 to 107 °C

Query: What measured melting point goes with COC(=O)c1cc(OC)c(CNC(C)=O)c(OC)c1 ?
Response: 184 °C

Query: What measured melting point goes with COc1ccc2c(c1)CC(N(C)CCCN1CCc3cc(OC)c(OC)cc3NC1=O)CC2 (centres undefined) ?
Response: 163 to 165 °C

----------
melting point reference

[[record]]
compound = "CN1C(=O)C(c2ccccc2)Oc2cccc3nc4c(c1c23)CCCC4 (configuration not stated)"
result = "188 to 189 °C"

[[record]]
compound = "Cc1nc2c(C)cccn2c(=O)c1CCN1CCC(c2noc3cc(F)ccc23)CC1"
result = "200 °C"

[[record]]
compound = "C=CCc1c(C=O)cccc1OCc1ccccc1"
result = "66 to 67 °C"

[[record]]
compound = "CC(=O)c1[nH]c(-c2ccc(O)cc2)nc1C"
result = "300 °C"

[[record]]
compound = "N[C@@H](Cc1ccc(C(F)(F)F)cc1)[C@H](O)c1ccoc1 (racemic)"
result = "91 to 92 °C"


Query: What measured melting point goes with Nc1c(F)c(F)[nH]c(=O)c1F ?
Response: 199 to 201 °C

Query: What measured melting point goes with O=C(Cl)Sc1nnnn1-c1ccccc1 ?
Response: 112 to 114 °C
